# Tested on: RXF 393 renal
# Assay explanation: NCI-60 one-dose screen, 48 h (100 = growth as untreated, 0 = no growth, -100 = all killed)
# Test settings: 10 µM unless noted
The panel holds about 83,000 compounds, 20% with a hit somewhere; the sample as a whole holds those more often. Activity calls are given as the source filed them. How the source made its calls: active means growth percent below 10; inactive means the rest.
Reported property: growth

See these solved cases before continuing.
Molecule	growth
CC(C)c1cc(C(=O)O)c(O)c(C(C)C)c1.CC(C)c1cc(C(=O)O)c(O)c(C(C)C)c1.[Mn]	129% (inactive)
C[C@H]1[C@@H]2[C@H]3CC[C@@H]4[C@@]5(C)Cc6c([nH]c7ccccc67)C(C)(C)[C@@H]5CC[C@@]4(C)[C@]3(C)CC[C@]23CO[C@]1(C)[C@@H](C(=O)/C=C/c1ccccn1)C3	89.3% (inactive)
Cc1cccc(C)c1NC(=O)CSC(=S)N1CCN(CCOCCO)CC1	125% (inactive)
CCC(c1ccc(OC)cc1)C(CC)c1ccc(O)c(CN2CCCCC2)c1 (configuration not stated)	53.7% (inactive)

Dear colleague, could you please provide growth for the molecules listed below?
1. Cc1c(C)c2c(c(C)c1NC(=O)CCCCCCC(=O)O)CCC(C)(CCCC(C)CCCC(C)CCCC(C)C)O2 (configuration not stated)
2. C/C(=N/NC(N)=S)C(=O)O

Data returned:
1: 98.9% (inactive); 2: 116% (inactive)

* * *

# Test system: CCRF-CEM leukemia
# Assay explanation: NCI-60 one-dose screen, 48 h (100 = growth as untreated, 0 = no growth, -100 = all killed)
# Test settings: 10 µM unless noted
Compounds without any hit were thinned out: in the full panel of roughly 83,000, 20% have a hit.
Returns one of fulfilled or not fulfilled; fulfilled when growth is >= 10%.

Entry smiles	Group label
CCN1CCN(C(=O)[C@]23CCC(C)(C)C[C@@H]2C2=CC[C@@H]4[C@@]5(C)C/C(=C/c6ccncc6)C(=O)C(C)(C)[C@@H]5CC[C@@]4(C)[C@]2(C)CC3)CC1	not fulfilled

Data request: Test whether the compound "COC(=O)[C@]12CC[C@@H](C)[C@H](C)[C@@H]1C1=CC[C@@H]3[C@@]4(C)C[C@@H](OC(C)=O)[C@H](OC(C)=O)[C@@](C)(COC(C)=O)[C@@H]4[C@H](O)C[C@@]3(C)[C@]1(C)CC2" records growth of 10% or higher.
Data returned: fulfilled

Data request: Test whether the compound "NNC(=O)c1nc2ccccc2[nH]1" records growth of 10% or higher.
Data returned: fulfilled

Data request: Test whether the compound "COc1cc2[nH]c(C(=O)c3cc(OC)c(OC)c(OC)c3)c(N)c2cc1C#CCO" records growth of 10% or higher.
Data returned: fulfilled

Data request: Test whether the compound "O=S(=O)(NCCNc1cc(-c2cn(-c3ccccc3)nc2-c2cccc(O)c2)ccn1)c1ccccc1" records growth of 10% or higher.
Data returned: fulfilled

Data request: Test whether the compound "CCc1nnc(NC(=O)c2ccoc2COc2ccccc2)s1" records growth of 10% or higher.
Data returned: fulfilled

Data request: Test whether the compound "COc1ccccc1-n1cnc(N)c1C(=O)c1cc(OC)c(OC)c(OC)c1" records growth of 10% or higher.
Data returned: fulfilled

Data request: Test whether the compound "O=C1/C(=C\C(Cl)=C/c2ccc([N+](=O)[O-])cc2)SC(=S)N1CCc1ccc(O)cc1" records growth of 10% or higher.
Data returned: not fulfilled
